Entries and their pKd
system.under.test: T1, native IHFNTHI (integration host factor of nontypeable Haemophilus influenzae) (nontypeable Haemophilus influenzae …, UniProt P43723 1-96; P43724 1-94)
T1 construct: also called NTHI IHF
T1 sequence 1: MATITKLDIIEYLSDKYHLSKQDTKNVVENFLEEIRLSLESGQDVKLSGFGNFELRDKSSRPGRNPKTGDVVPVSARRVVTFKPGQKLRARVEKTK
T1 sequence 2: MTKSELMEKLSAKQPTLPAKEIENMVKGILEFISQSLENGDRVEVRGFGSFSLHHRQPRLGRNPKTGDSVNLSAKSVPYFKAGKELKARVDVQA
experiment.summary: SPR Biacore 3000, HuMab immobilized, IHFNTHI as analyte
// pKd here means minus log10 of the molar concentration (mol/L)

For orientation, consider the following solved cases.
1. humanized anti-tip monoclonal antibody, heavy chain SEQ ID NO: 1 and light chain SEQ ID NO: 7 (antibody, V domains shown, also called HuTipMab; TP-21949) VH: EVKLVESGGGLVQPGGSLRLSCAASGFTFRTYAMSWVRQAPGKGLEWVATIGSDRRHTYYPDSVKGRFTISRDNAKNTLYLQMNSLRAEDTAVYYCVGPYDGYYGEFDYWGQGTLVTVSS VL: DVVMTQSPLSLPVTLGQPASISCRSSQSLLDSDGKTFLNWLQQRPGQSPRRLIYLVSKLDSGVPDRFSGSGSGTDFTLKISRVEAEDVGVYYCWQGTHFPYTFGQGTKLEIKR | 8.00
2. humanized anti-tip monoclonal antibody, heavy chain SEQ ID NO: 3 and light chain SEQ ID NO: 7 (antibody, V domains shown, also called H10212 (1F8.F1 Humanized HC3) + L10210 (1F8.F1 Humanized LC1)) VH: EVKLVQSGAEVKKPGASVKVSCKASGFTFRTYAMSWVRQAPGQRLEWVATIGSDRRHTYYPDKFQGRVTITRDNAKNTLYMELSSLRSEDTAVYYCVGPYDGYYGEFDYWGQGTLVTVSS VL: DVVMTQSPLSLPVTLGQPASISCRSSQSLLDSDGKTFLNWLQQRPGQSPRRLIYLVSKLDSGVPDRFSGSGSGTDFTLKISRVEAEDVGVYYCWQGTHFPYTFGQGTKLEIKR | 8.22
3. humanized anti-tip monoclonal antibody, heavy chain SEQ ID NO: 2 and light chain SEQ ID NO: 9 (antibody, V domains shown, also called H10211 (1F8.F1 Humanized HC2) + L10212 (1F8.F1 Humanized LC3)) VH: EVQLVESGGGLVQPGGSLRLSCAASGFTFRTYAMSWVRQAPGKGLEWVATIGSDRRHTYYPDSVKGRFTISRDNSKNTLYLQMNSLRAEDTAVYYCVGPYDGYYGEFDYWGQGTLVTVSS VL: DVVMTQSPDSLAVSLGERATINCKSSQSLLDSDGKTFLNWLQQKPGQPPKRLIYLVSKLDSGVPDRFSGSGSGTDFTLTISSLQAEDVAVYYCWQGTHFPYTFGQGTKLEIKR | 7.21

From here, focus on the item given below.
Challenge: I'd like to know its pKd. The binder in question is humanized anti-tip monoclonal antibody, heavy chain SEQ ID NO: 1 and light chain SEQ ID NO: 9 (antibody, V domains shown, also called H10210 (1F8.F1 Humanized HC1) + L10212 (1F8.F1 Humanized LC3)) VH: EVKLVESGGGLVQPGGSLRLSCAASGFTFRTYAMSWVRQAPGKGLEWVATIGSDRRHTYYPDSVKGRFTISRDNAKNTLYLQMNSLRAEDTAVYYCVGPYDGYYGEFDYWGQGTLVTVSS VL: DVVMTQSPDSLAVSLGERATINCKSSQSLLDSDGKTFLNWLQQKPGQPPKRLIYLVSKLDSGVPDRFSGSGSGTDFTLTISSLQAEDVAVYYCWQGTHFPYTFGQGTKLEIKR
Response given: 9.22
